- test.target: active GPIIb/IIIa (Homo sapiens, UniProt P05106+P08514)
- Construct: Platelet rich plasma (PRP) containing 3×10^8 platelets/ml was prepared from human blood; endogenous in cells
- Sequence (P08514 32-887 limits assumed): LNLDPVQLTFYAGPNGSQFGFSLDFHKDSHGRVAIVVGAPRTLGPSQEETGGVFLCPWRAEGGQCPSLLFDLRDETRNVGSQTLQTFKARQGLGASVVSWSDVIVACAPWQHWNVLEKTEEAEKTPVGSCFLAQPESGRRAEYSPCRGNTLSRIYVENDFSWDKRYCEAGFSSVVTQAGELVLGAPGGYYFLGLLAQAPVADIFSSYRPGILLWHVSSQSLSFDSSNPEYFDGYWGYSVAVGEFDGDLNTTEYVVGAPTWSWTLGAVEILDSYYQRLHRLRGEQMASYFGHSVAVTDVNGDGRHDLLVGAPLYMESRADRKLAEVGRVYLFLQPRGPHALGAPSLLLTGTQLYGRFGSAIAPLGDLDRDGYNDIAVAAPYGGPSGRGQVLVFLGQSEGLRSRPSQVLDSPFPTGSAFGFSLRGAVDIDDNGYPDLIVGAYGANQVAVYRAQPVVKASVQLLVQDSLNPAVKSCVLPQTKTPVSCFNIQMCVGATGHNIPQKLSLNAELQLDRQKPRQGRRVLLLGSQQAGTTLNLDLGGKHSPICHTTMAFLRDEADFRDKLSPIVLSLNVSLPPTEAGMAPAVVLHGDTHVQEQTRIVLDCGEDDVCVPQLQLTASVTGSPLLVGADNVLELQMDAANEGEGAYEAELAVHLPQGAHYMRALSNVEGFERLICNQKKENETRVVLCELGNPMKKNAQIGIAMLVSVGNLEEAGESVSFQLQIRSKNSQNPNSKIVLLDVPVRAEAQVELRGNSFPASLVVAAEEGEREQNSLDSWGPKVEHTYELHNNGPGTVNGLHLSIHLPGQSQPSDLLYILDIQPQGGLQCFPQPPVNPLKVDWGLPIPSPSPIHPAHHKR
- Sequence (P08514 891-1039 partner limits assumed): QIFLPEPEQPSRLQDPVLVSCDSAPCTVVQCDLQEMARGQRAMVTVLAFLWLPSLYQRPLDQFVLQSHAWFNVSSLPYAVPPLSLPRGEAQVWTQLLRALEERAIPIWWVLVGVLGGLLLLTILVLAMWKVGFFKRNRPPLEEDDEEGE
- Sequence (P05106 27-788): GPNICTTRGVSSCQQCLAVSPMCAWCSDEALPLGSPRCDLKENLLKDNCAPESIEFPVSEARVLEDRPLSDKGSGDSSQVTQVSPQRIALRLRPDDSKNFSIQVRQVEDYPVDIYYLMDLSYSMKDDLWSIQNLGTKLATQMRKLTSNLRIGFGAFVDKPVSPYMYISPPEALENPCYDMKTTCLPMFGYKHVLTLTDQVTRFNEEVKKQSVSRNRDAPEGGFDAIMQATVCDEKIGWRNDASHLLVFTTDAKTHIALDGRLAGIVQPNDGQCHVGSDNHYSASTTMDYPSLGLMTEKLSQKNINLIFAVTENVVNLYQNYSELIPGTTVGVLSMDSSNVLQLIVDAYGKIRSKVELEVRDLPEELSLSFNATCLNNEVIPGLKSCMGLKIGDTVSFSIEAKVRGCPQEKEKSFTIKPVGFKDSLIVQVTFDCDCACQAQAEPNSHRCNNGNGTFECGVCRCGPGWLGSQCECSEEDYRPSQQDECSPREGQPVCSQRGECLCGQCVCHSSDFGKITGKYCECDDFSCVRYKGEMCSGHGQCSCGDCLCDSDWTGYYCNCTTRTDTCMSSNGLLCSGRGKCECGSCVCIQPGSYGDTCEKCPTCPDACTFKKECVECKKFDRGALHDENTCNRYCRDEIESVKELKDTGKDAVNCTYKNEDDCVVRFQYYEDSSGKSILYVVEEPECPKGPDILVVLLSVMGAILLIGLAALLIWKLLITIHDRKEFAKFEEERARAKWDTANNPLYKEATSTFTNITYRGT
- assay.text: Test 1: inhibitory activity of adenosine diphosphate (ADP)-induced platelet aggregation in platelet rich plasma
- settings: human PRP 3×10^8 platelets/ml, ADP final concentration 2.5 μM, 37° C.; read-out: A Inhibition of platelet aggregation IC50
Collected IC50 values appear next to each entry.
measure.name: IC50 (µM)

> print(dat)
                                    molecule  data.value
 1  CC(C)CCC(=O)Nc1cccc(C(=O)N[C@@H](CNC(=O)[C@H]2CCCN(C(=O)CCC3CCNCC3)C2)C(=O)O)c1      0.0091
 2  COC(=O)COc1ccc(C(=O)N[C@H](CNC(=O)[C@@H]2CCCN(C(=O)CCC3CCNCC3)C2)C(=O)O)cc1      0.0299
 3  N=C(N)c1ccc(OCC(=O)Nc2ccc(OCC(=O)O)c(C(=O)O)c2)cc1        0.26
 4  CCCCCCC(=O)N[C@H](CNC(=O)[C@@H]1CCCN(C(=O)CCC2CCNCC2)C1)C(=O)O      0.0324
 5  CCC(=O)N[C@@H](CNC(=O)[C@@H]1CCCN(C(=O)CCC2CCNCC2)C1)C(=O)O       0.049
 6  CC(C)CCCOc1ccc(C(=O)N[C@@H](CNC(=O)[C@H]2CCCN(C(=O)CCC3CCNCC3)C2)C(=O)O)cc1      0.0061
 7  CC(C)CC(=O)Nc1cccc(C(=O)N[C@@H](CNC(=O)[C@H]2CCCN(C(=O)CCC3CCNCC3)C2)C(=O)O)c1        0.03
 8  CC(NCOc1ccc(C(=N)N)cc1)C(=O)N[C@@H](CC(=O)O)C(=O)N[C@@H](C(=O)N1CCS(=O)(=O)CC1)C(C)C (stereo partly drawn)       0.073
 9  CC(=O)N[C@@H](CNC(=O)[C@H]1CCCN(C(=O)CCC2CCNCC2)C1)C(=O)O       0.791
10  N=C(N)c1ccc(C(=O)N[C@@H](Cc2ccc(O)cc2)C(=O)N2CCC(OCC(=O)O)CC2)cc1 [Reference Ex. 3, Lamifiban, reference compound]       0.045
11  CC(=O)N[C@@H](CNC(=O)[C@@H]1CCCN(C(=O)/C=C/C2CCNCC2)C1)C(=O)O       0.056
12  COc1cc(C(=O)CN(C)C(=O)/C=C/C2CCNCC2)ccc1OCC(=O)O       0.291
